Exercise: for every item that follows, state its recorded melting point.

What does the data say about its melting point? Entry: CCS(=O)(=O)Nc1ccc2c(c1)S(=O)(=O)C(Cl)=C(C1=C(O)[C@H](C(C)(C)C)N(Cc3ccc(F)cc3)C1=O)N2 136 to 140 °C

Likewise for CC(C)(C)[C@H]1C(O)=C(C2=C(Cl)S(=O)(=O)c3cc(NS(C)(=O)=O)ccc3N2)C(=O)N1Cc1ccccc1 ? 148 to 152 °C

Likewise for Cc1cc(CN2C(=O)C(C3=C(Cl)S(=O)(=O)c4cc(NS(C)(=O)=O)ccc4N3)=C(O)[C@@H]2C(C)(C)C)ccc1F ? 140 to 146 °C

Likewise for CC(C)CCN1C(=O)C(C2=C(C#N)S(=O)(=O)c3cc(NS(C)(=O)=O)ccc3N2)=C(O)C1C(C)(C)C (stereo not drawn) ? > 250 °C

Likewise for CC(C)CCN1C(=O)C(C2=C(C(N)=O)S(=O)(=O)c3cc(NS(C)(=O)=O)ccc3N2)=C(O)[C@@H]1C(C)(C)C ? 150 to 155 °C

Likewise for CC(C)(C)[C@H]1C(O)=C(C2=C(Cl)S(=O)(=O)c3cc(NS(=O)(=O)C4CC4)ccc3N2)C(=O)N1Cc1ccc(F)c(Cl)c1 ? 137 to 141 °C

Likewise for CCS(=O)(=O)Nc1ccc2c(c1)S(=O)(=O)C(Cl)=C(C1=C(O)[C@H](C(C)(C)C)N(Cc3ccc(F)c(C)c3)C1=O)N2 ? 130 to 135 °C

Likewise for CC1=C(C2=C(O)[C@H](C(C)(C)C)N(Cc3ccc(F)cc3)C2=O)Nc2ccc(NS(C)(=O)=O)cc2S1(=O)=O ? 170 to 174 °C

Likewise for CC1=C(C2=C(O)[C@H](C(C)(C)C)N(CCC(C)C)C2=O)Nc2ccc(NS(C)(=O)=O)cc2S1(=O)=O ? 210 to 215 °C

Likewise for CC(C)(C)[C@H]1C(O)=C(C2=C(Cl)S(=O)(=O)c3cc(NS(C)(=O)=O)ccc3N2)C(=O)N1Cc1ccc(F)c(Cl)c1 ? 147 to 151 °C

Likewise for CC(C)(C)C1C(O)=C(C2=C(C#N)S(=O)(=O)c3cc(NS(C)(=O)=O)ccc3N2)C(=O)N1CCC1CCCC1 (stereo not drawn) ? > 250 °C

Likewise for Cc1cc(CN2C(=O)C(C3=C(Cl)S(=O)(=O)c4cc(NS(=O)(=O)C5CC5)ccc4N3)=C(O)[C@@H]2C(C)(C)C)ccc1F ? 127 to 131 °C

Likewise for CCS(=O)(=O)Nc1ccc2c(c1)S(=O)(=O)C(Cl)=C(C1=C(O)[C@H](C(C)(C)C)N(CCC(C)C)C1=O)N2 ? 125 to 165 °C

Likewise for CC(C)(C)[C@H]1C(O)=C(C2=C(Cl)S(=O)(=O)c3cc(NS(C)(=O)=O)ccc3N2)C(=O)N1CCC1CCCC1 ? 137 to 141 °C

Likewise for COc1cc(CN2C(=O)C(C3=C(C#N)S(=O)(=O)c4cc(NS(C)(=O)=O)ccc4N3)=C(O)C2C(C)(C)C)ccc1F (stereo not drawn) ? 218 °C

Likewise for CN(C)C(=O)C1=C(C2=C(O)[C@H](C(C)(C)C)N(Cc3ccc(F)cc3)C2=O)Nc2ccc(NS(C)(=O)=O)cc2S1(=O)=O ? 140 °C

Likewise for CCS(=O)(=O)Nc1ccc2c(c1)S(=O)(=O)C(Cl)=C(C1=C(O)[C@H](C(C)(C)C)N(Cc3ccc(F)c(Cl)c3)C1=O)N2 ? 140 to 144 °C

Likewise for CC(C)(C)[C@H]1c2oc(=O)c3c(c2C(=O)N1Cc1ccc(F)cc1)Nc1ccc(NS(C)(=O)=O)cc1S3(=O)=O ? 120 °C

Likewise for CC(C)CCN1C(=O)C(C2=C(Cl)S(=O)(=O)c3cc(NS(C)(=O)=O)ccc3N2)=C(O)[C@@H]1C(C)(C)C ? 142 to 145 °C

Likewise for Cc1cc(CN2C(=O)C(C3=C(C(N)=O)S(=O)(=O)c4cc(NS(C)(=O)=O)ccc4N3)=C(O)[C@@H]2C(C)(C)C)ccc1F ? 168 to 172 °C

Likewise for CC(C)(C)[C@H]1C(O)=C(C2=C(Cl)S(=O)(=O)c3cc(NS(C)(=O)=O)ccc3N2)C(=O)N1Cc1ccc(F)cc1 ? 144 to 148 °C

Likewise for CC(C)(C)[C@H]1C(O)=C(C2=C(Cl)S(=O)(=O)c3cc(NS(=O)(=O)C4CC4)ccc3N2)C(=O)N1Cc1ccc(F)cc1 ? 137 to 141 °C

Likewise for Cc1cc(CN2C(=O)C(C3=C(C#N)S(=O)(=O)c4cc(NS(C)(=O)=O)ccc4N3)=C(O)C2C(C)(C)C)ccc1F (stereo not drawn) ? > 250 °C

Likewise for COc1cc(CN2C(=O)C(C3=C(Cl)S(=O)(=O)c4cc(NS(C)(=O)=O)ccc4N3)=C(O)[C@@H]2C(C)(C)C)ccc1F ? 139 to 144 °C
